Test: Serum stability by RP-HPLC
Settings: male, human, 50% (v/v) aqueous pooled human serum
Ends that are not written are not given here.
QUANTITY_MEASURED: remaining at 2 h, 0.6 mM

Problem: Identify measured remaining at 2 h, 0.6 mM associated with VVGSPSAQDEASPLS [VVGS-peptide]
Result: ~20%

---

Assay: Serum stability by RP-HPLC
Settings: male, human, 50% (v/v) aqueous pooled human serum
Ends that are not written are not given here.
QUANTITY_MEASURED: half-life at 0.6 mM

Problem: Identify measured half-life at 0.6 mM associated with VVGSPSAQDEASPLS [VVGS-peptide]
Result: ~45 min
